Molecular target: human DP2 receptor (Homo sapiens)
Construct: membranes prepared from them
Sequence (Q9Y5Y4 1-395): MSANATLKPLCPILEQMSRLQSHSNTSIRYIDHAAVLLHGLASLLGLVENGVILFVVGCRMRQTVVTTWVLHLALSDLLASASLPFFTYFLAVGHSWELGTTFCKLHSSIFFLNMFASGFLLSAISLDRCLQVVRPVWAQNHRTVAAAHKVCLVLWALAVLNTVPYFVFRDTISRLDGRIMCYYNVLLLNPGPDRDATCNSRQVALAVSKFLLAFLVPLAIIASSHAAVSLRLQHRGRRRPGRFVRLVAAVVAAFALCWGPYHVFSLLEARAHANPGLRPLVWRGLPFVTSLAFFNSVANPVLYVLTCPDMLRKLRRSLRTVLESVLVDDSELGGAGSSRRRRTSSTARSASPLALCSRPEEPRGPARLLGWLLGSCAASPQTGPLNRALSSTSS
Assay: DP2/CRTH2 radioligand binding assay using [3H]PGD2
Settings: membranes of HEK293 cells stably expressing recombinant human DP2; 1 nM [3H]PGD2; read-out: hDP2 IC50
MEASURED_ENDPOINT: IC50

COc1ccc(CC(=O)O)cc1-c1ccc(C(F)(F)F)cc1CSCC(F)(F)F [Compound 1-5]    1000 to 10000 nM
COc1ccc(CC(=O)O)cc1-c1ccc(C(F)(F)F)cc1C[S+]([O-])Cc1ccccc1 (centres unmarked) [Compound 1-8]    > 10000 nM
COc1ccc(CC(=O)O)cc1-c1ccc(C(F)(F)F)cc1CSCc1ccccc1 [Compound 1-2]    < 1000 nM
COc1ccc(CC(=O)O)cc1-c1ccc(C(F)(F)F)cc1CSc1ccccc1 [Compound 1-1]    < 1000 nM
CCN(Cc1ccccc1)C(=O)OCc1cc(C(F)(F)F)ccc1-c1cc(CC(=O)O)ccc1OC [Compound 1-15]    1000 to 10000 nM
COc1ccc(CC(=O)O)cc1-c1ccc(C(F)(F)F)cc1CS(=O)(=O)C(C)(C)C [Compound 1-13]    > 10000 nM
COc1ccc(CC(=O)O)cc1-c1ccc(C(F)(F)F)cc1CS(=O)(=O)c1nnc(C)s1 [Compound 1-14]    1000 to 10000 nM

In the following, a different molecule is considered.
Value lookup for IC50; key = CCN(Cc1ccccc1)C(=O)OCc1cc(C(F)(F)F)ccc1-c1cc(CC(=O)O)ccc1F [Compound 1-16] < 1000 nM

Where do these numbers come from? They come from patent US8524748B2.
